testSystem: T1, rHuman EGF R/Fc Chimera, CF (R&D Systems Cat#344-ER) (human, UniProt P00533 25-645)
T1 construct: Bought recombinant protein; also called epidermal growth factor receptor; Fc part of the bought chimera not given
measurementNotes: ECL multispot (MSD) binding assay, antigen spotted on plate, Fab 0.04 uM;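 note: purified Fab incubated 1 h at 20 °C on antigen spots, detected via TAG-labelled antibody, ECL read against each well's blank, with signal-to-blank of at least 4 scored as binder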
observationType: ECL signal
Write the number on its own, no unit after it.

Would you please look over these solved cases?
binder	observationType	recordedMeasurement
Fab VH5-51_IGHD5-18*01>3_IGHJ4*01 G100K/G104T (H:KT) & V3-4_IGLJ1*01 V91A (Fab, V domains shown, Fab; Expressed from Plasmid A (CH1, His6 and Flag tags) and Plasmid E (lambda CL); also called KT & V91A) VH: EVQLVQSGAEVKKPGESLKISCKGSGYSFTSYWIGWVRQMPGKGLEWMGIIYPGDSDTRYSPSFQGQVTISADKSISTAYLQWSSLKASDTAMYYCARRKYSYTYDYFDYWGQGTLVTVSS VL: QTVVTQEPSFSVSPGGTVTLTCGLSSGSVSTSYYPSWYQQTPGQAPRTLIYSTNTRSSGVPDRFSGSILGNKAALTITGAQADDESDYYCALYMGSGISYVFGTGTKVTVL	ECL signal	833
Fab VH5-51_IGHD5-18*01>3_IGHJ4*01 G100K/G104T (H:KT) & V3-4_IGLJ1*01 I98A (Fab, V domains shown, Fab; Expressed from Plasmid A (CH1, His6 and Flag tags) and Plasmid E (lambda CL); also called KT & I98A) VH: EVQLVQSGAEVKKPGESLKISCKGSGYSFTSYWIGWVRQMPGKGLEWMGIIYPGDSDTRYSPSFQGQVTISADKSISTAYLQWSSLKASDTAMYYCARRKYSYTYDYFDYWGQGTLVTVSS VL: QTVVTQEPSFSVSPGGTVTLTCGLSSGSVSTSYYPSWYQQTPGQAPRTLIYSTNTRSSGVPDRFSGSILGNKAALTITGAQADDESDYYCVLYMGSGASYVFGTGTKVTVL	ECL signal	1050
Fab VH5-51_IGHD5-18*01>3_IGHJ4*01 G100K/G104T (H:KT) & V3-4_IGLJ1*01 S96A (Fab, V domains shown, Fab; Expressed from Plasmid A (CH1, His6 and Flag tags) and Plasmid E (lambda CL); also called KT & S96A) VH: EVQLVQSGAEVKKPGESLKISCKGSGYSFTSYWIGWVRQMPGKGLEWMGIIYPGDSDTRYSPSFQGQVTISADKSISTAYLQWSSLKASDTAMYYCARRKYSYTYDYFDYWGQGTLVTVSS VL: QTVVTQEPSFSVSPGGTVTLTCGLSSGSVSTSYYPSWYQQTPGQAPRTLIYSTNTRSSGVPDRFSGSILGNKAALTITGAQADDESDYYCVLYMGAGISYVFGTGTKVTVL	ECL signal	1000
Fab VH5-51_IGHD5-18*01>3_IGHJ4*01 G100K/G104T (H:KT) & V3-4_IGLJ1*01 L92A (Fab, V domains shown, Fab; Expressed from Plasmid A (CH1, His6 and Flag tags) and Plasmid E (lambda CL); also called KT & L92A) VH: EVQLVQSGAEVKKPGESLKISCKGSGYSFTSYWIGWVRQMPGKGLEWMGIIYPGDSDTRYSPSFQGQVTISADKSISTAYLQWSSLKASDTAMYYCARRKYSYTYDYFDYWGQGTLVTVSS VL: QTVVTQEPSFSVSPGGTVTLTCGLSSGSVSTSYYPSWYQQTPGQAPRTLIYSTNTRSSGVPDRFSGSILGNKAALTITGAQADDESDYYCVAYMGSGISYVFGTGTKVTVL	ECL signal	1010
Fab VH5-51_IGHD5-18*01>3_IGHJ4*01 G100K/G104T (H:KT) & V3-4_IGLJ1*01 M94A (Fab, V domains shown, Fab; Expressed from Plasmid A (CH1, His6 and Flag tags) and Plasmid E (lambda CL); also called KT & M94A) VH: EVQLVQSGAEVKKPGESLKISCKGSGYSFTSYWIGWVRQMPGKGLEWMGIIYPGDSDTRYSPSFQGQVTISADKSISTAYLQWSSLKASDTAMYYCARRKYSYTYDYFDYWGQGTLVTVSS VL: QTVVTQEPSFSVSPGGTVTLTCGLSSGSVSTSYYPSWYQQTPGQAPRTLIYSTNTRSSGVPDRFSGSILGNKAALTITGAQADDESDYYCVLYAGSGISYVFGTGTKVTVL	ECL signal	1130

Now take the following binder into account.
Endpoint output: ECL signal of Fab VH5-51_IGHD5-18*01>3_IGHJ4*01 G100K/G104T (H:KT) & V3-4_IGLJ1*01 S99A (Fab, V domains shown, Fab; Expressed from Plasmid A (CH1, His6 and Flag tags) and Plasmid E (lambda CL); also called KT & S99A) VH: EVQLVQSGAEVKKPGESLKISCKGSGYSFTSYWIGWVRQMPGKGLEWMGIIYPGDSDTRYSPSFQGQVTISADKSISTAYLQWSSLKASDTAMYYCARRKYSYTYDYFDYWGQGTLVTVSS VL: QTVVTQEPSFSVSPGGTVTLTCGLSSGSVSTSYYPSWYQQTPGQAPRTLIYSTNTRSSGVPDRFSGSILGNKAALTITGAQADDESDYYCVLYMGSGIAYVFGTGTKVTVL . Value?
956
